From: ChEMBL document CHEMBL4680166

test system: A549; assay: Anticancer activity against human A549 cells assessed as inhibition of cell proliferation measured after 72 hrs by MTT assay; assay type: functional, cell-based; settings: A549, 72 h
The compounds listed here are annotated with their IC50.
Expressed in nM, but write only the number.

These solved cases illustrate the format of a correct answer.
INSERT INTO measurements (compound, observed_measurement) VALUES
  ('COc1ccc(/C=C\c2cc(OC)c(OC)c(OC)c2)cc1OCCCOC(=O)[C@H](N)Cc1cn(C)c2ccccc12', 530),
  ('COc1ccc(/C=C\c2cc(OC)c(OC)c(OC)c2)cc1O', 470),
  ('COc1ccc(/C=C\c2cc(OC)c(OC)c(OC)c2)cc1OC(=O)c1cccc(Cn2cc(CCOC(=O)CCC(=O)n3cc(C4CC(=O)NC4=O)c4cc(F)ccc43)nn2)c1 (centres undefined)', 950);

Okay, now this compound:
// recorded IC50 for COc1ccc(/C=C\c2cc(OC)c(OC)c(OC)c2)cc1OC(=O)CCC(=O)n1cc(C2CC(=O)NC2=O)c2cc(F)ccc21 (centres undefined) : 450

---

test system: HeLa; experiment: Inhibition of IDO1 expression in hIFNgamma-stimulated human HeLa cells at 0.5 uM measured after 24 hrs by western blot assay; assay type: functional
The source made the active and inactive calls. The calls are words filed in the database; no cut-off is given here.
Valid outcomes are listed here; reply with one: True = active, False = inactive

INSERT INTO measurements (compound, test_system, discrete_label) VALUES
  ('Cn1cc(C[C@@H](N)C(=O)O)c2ccccc21 [INDOXIMOD]', 'HeLa', 'True'),
  ('COc1ccc(/C=C\c2cc(OC)c(OC)c(OC)c2)cc1OC(=O)c1cccc(Cn2cc(CCOC(=O)[C@H](N)Cc3cn(C)c4ccccc34)nn2)c1', 'HeLa', 'True'),
  ('COc1ccc(/C=C\c2cc(OC)c(OC)c(OC)c2)cc1OCCCOC(=O)[C@H](N)Cc1cn(C)c2ccccc12', 'HeLa', 'True'),
  ('COc1ccc(/C=C\c2cc(OC)c(OC)c(OC)c2)cc1O [COMBRETASTATIN A4]', 'HeLa', 'False');

Now look at this entry.
What did the test return for `COc1ccc(/C=C\c2cc(OC)c(OC)c(OC)c2)cc1OC(=O)[C@H](N)Cc1cn(C)c2ccccc12` ?
True

---

system: HeLa; assay: Anticancer activity against human HeLa cells assessed as inhibition of cell proliferation measured after 72 hrs by MTT assay; assay type: functional, cell-based
ASSAY_ENDPOINT: IC50

These solved cases illustrate the format of a correct answer.
INSERT INTO results (compound, observed_measurement) VALUES
  ('COc1ccc(/C=C\c2cc(OC)c(OC)c(OC)c2)cc1OC(=O)[C@H](N)Cc1cn(C)c2ccccc12', '430 nM'),
  ('COc1ccc(/C=C\c2cc(OC)c(OC)c(OC)c2)cc1OC(=O)c1cccc(Cn2cc(CCOC(=O)CCC(=O)n3cc(C4CC(=O)NC4=O)c4cc(F)ccc43)nn2)c1 (stereo unspecified)', '390 nM'),
  ('COc1ccc(/C=C\c2cc(OC)c(OC)c(OC)c2)cc1OC(=O)c1cccc(Cn2cc(CCOC(=O)[C@H](N)Cc3cn(C)c4ccccc34)nn2)c1', '70 nM'),
  ('COc1ccc(/C=C/C(=O)c2cc(OC)c(OC)c(OC)c2)cc1O', '350 nM'),
  ('COc1ccc(/C=C/C(=O)c2cc(OC)c(OC)c(OC)c2)cc1OC(=O)c1cccc(Cn2cc(CCOC(=O)[C@H](N)Cc3cn(C)c4ccccc34)nn2)c1', '480 nM'),
  ('COc1ccc(/C=C\c2cc(OC)c(OC)c(OC)c2)cc1OCCCOC(=O)[C@H](N)Cc1cn(C)c2ccccc12', '330 nM'),
  ('COc1ccc(/C=C\c2cc(OC)c(OC)c(OC)c2)cc1O [COMBRETASTATIN A4]', '210 nM'),
  ('COc1ccc(/C=C/C(=O)c2cc(OC)c(OC)c(OC)c2)cc1OC(=O)CCC(=O)n1cc(C2CC(=O)NC2=O)c2cc(F)ccc21 (stereo unspecified)', '370 nM');

// recorded IC50 for COc1ccc(/C=C/C(=O)c2cc(OC)c(OC)c(OC)c2)cc1OC(=O)c1cccc(Cn2cc(CCOC(=O)CCC(=O)n3cc(C4CC(=O)NC4=O)c4cc(F)ccc43)nn2)c1 (stereo unspecified) : 490 nM

// recorded IC50 for COc1ccc(/C=C\c2cc(OC)c(OC)c(OC)c2)cc1OC(=O)CCC(=O)n1cc(C2CC(=O)NC2=O)c2cc(F)ccc21 (stereo unspecified) : 270 nM

// recorded IC50 for Cn1cc(C[C@@H](N)C(=O)O)c2ccccc21 [INDOXIMOD] : > 100000 nM
